- System: Calu-3
- Experiment Summary: cell viability relative to DMSO; higher = less toxic
- Measurement Conditions: 72 h; 1 nM
Structures can show the parent of a compound that is named as a salt.
Quantity: cell viability (%)
Give your result in % as a bare value.

Query: Requested read-out cell viability, target or system Calu-3, entry COc1ccc(C(=O)C2CCN(CC(=O)N(Cc3nc4c(c(=O)[nH]3)COCC4)CC3CC3)CC2)cc1
Result: 95.3

Query: // repeat for Oc1cccc(Nc2ncc(F)c(Nc3cccc(O)c3)n2)c1 and report
Result: 92.2

Query: And for COc1ccc2[nH]c([S+]([O-])Cc3ncc(C)c(OC)c3C)nc2n1 (centres undefined) ?
Result: 109

Query: Query CC(=O)NCCCOc1ccc(C(=O)N2CCC(N3C(=O)CCc4ccccc43)CC2)cc1 next
Result: 81

Query: Then what about the compound C[C@@H]1C(=O)O[C@H]2C[C@@]34[C@H]5C[C@@H](C(C)(C)C)[C@]36[C@@H](OC(=O)[C@@H]6O)O[C@@]4(C(=O)O5)[C@]21O [Ginkgolide A] ?
Result: 104

Query: Also Cn1c(=O)c2c(ncn2CC(=O)Nc2ccc(-c3ccccc3)nn2)n(C)c1=O ?
Result: 98.1

Query: Ok, now C[C@H](NC(=O)/C(C#N)=C/c1cccc(Br)n1)c1ccccc1
Result: 102

Query: Now consider Nc1nc2cc(-c3ccc4ncc(C(=O)N5CCOCC5)n4c3)ccc2o1 and answer again.
Result: 94.2

Query: Try this compound next: Cc1cc2sc(NC(=O)Cc3ccccc3)nc2cc1Cl
Result: 115

Query: Also need Cc1ccc(/N=C/N(C)/C=N/c2ccc(C)cc2C)c(C)c1 , thanks.
Result: 95.1

Query: Then this compound: Cc1nc(C)c(-c2ccc(C3CCC(CC(=O)O)CC3)cc2)nc1C(N)=O (centres undefined)
Result: 104

Query: Another compound to check: Cc1nc(-c2cn3c(n2)-c2ccc(-c4cnn(C(C)(C)C(N)=O)c4)cc2OCC3)n(C(C)C)n1
Result: 99.2

Query: Another compound to look at: Cc1[nH]c2ccc(Cl)cc2c1C1=CCNCC1
Result: 109

Query: Continue with O=C(O)c1cc(N2N=C(C(F)(F)F)/C(=C/c3ccc(-c4ccccc4)o3)C2=O)ccc1Cl
Result: 102

Query: Next compound up: CC1Cc2ccccc2N1NC(=O)c1ccc(Cl)c(S(N)(=O)=O)c1 (centres undefined) [indapamide]
Result: 105

Query: Okay, and CN1CCC[C@@H]1Cc1c[nH]c2ccc(CCS(=O)(=O)c3ccccc3)cc12 ?
Result: 88.5

Query: Can you handle O=C1CC[C@@]2(O)[C@H]3Cc4ccc(O)c5c4[C@@]2(CCN3CC2CC2)[C@H]1O5 [NALTREXONE HYDROCHLORIDE] next?
Result: 97.3

Query: Entry O=C1CC(=O)c2c(Cl)c(Cl)c(Cl)c(Cl)c21 please
Result: 88

Query: What do you have for N#CC(c1ccc(Cl)cc1)c1c(Cl)cc(-n2ncc(=O)[nH]c2=O)cc1Cl (centres undefined) ?
Result: 98
